Test system: Mab ATCC19977 strain
Type: cell-based, Mycobacterium abscessus
Where a SMILES comes first, the peptide text is derived from it.
We begin with a simple list: items and their reported MIC values.

compound: CC(C)C[C@H](N)C(=O)NCC(=O)N[C@H](C(=O)N[C@@H](Cc1ccc(O)cc1)C(=O)O)[C@@H](C)O [Pug-3] (H-LGTY-OH)
MIC values: >400 µg/mL

compound: CC[C@H](C)[C@H](NC(=O)[C@H](CCCCN)NC(=O)[C@H](CCCNC(=N)N)NC(=O)CNC(=O)[C@H](CC(C)C)NC(=O)[C@H](CO)NC(=O)[C@H](CCCNC(=N)N)NC(=O)[C@H](CC(C)C)NC(=O)CNC(=O)CN)C(=O)N[C@@H](CC(C)C)C(=O)N[C@@H](CCCNC(=N)N)C(=O)N[C@@H](C)C(=O)N[C@@H](Cc1c[nH]c2ccccc12)C(=O)N[C@@H](CCCCN)C(=O)N[C@@H](CCCCN)C(=O)O [S62] (H-GGLRSLGRKILRAWKK-OH)
MIC values: 200 µg/mL

Now for another entry.
Please list MIC values recorded for the compound CC[C@H](C)[C@H](NC(=O)[C@H](CCCCN)NC(=O)[C@H](CCCNC(=N)N)NC(=O)CNC(=O)[C@H](CC(C)C)NC(=O)[C@H](CO)NC(=O)[C@H](CCCNC(=N)N)NC(=O)[C@H](CC(C)C)NC(=O)CNC(=O)CN)C(=O)N[C@@H](CC(C)C)C(=O)N[C@@H](CCCNC(=N)N)C(=O)N[C@@H](C)C(=O)N[C@@H](Cc1c[nH]c2ccccc12)C(=O)N[C@@H](CCCCN)C(=O)O [S63] (H-GGLRSLGRKILRAWK-OH) 200 µg/mL
